assay: Solubility in organic solvents and in water (physicochemical properties, Table 1); conditions: water, aqueous buffer; at 90° C., pH 7.4, pH 1.0
Readout label: solubility

GET /value?item= Cn1ncc2cc(C(=O)Nc3ccc(Cl)c(Cl)c3)ccc21 &field=solubility returns < 0.035 µg/mL

###

molecular target: rat MAO-A (Rattus norvegicus, UniProt P21396); construct: from tissue; host or cells: rat liver mitochondria (male Sprague-Dawley rats); experiment: Rat MAO-A assay (Amplex Red fluorescence, rat liver mitochondria pre-treated with deprenyl); assay type: biochemical; settings: read-out: rat MAO-A (rat liver mitochondria) % inhibition at 10 μM; at 10 μM, rat liver mitochondria
Sequence (P21396 whole entry): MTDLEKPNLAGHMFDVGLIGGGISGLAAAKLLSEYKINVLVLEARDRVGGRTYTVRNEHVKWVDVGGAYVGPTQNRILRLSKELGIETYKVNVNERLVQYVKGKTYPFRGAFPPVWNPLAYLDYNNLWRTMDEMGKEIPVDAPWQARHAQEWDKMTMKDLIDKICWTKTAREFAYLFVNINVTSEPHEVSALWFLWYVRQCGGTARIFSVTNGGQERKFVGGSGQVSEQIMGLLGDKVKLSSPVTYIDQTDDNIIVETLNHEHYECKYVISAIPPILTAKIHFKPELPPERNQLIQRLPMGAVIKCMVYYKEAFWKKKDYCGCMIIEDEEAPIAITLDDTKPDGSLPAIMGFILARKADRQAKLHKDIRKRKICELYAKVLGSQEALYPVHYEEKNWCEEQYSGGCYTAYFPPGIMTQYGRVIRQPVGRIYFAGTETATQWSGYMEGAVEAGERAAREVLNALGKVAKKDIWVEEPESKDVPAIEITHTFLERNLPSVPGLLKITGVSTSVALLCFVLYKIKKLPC
Readout label: inhibition at 10 µM (%)
Quick note: give the figure in %, leave out the unit.

GET /value?item= Cn1ncc2cc(C(=O)Nc3ccc(Cl)c(Cl)c3)ccc21 [Example 13] &field=inhibition at 10 µM returns 42

GET /value?item= O=C(Nc1cnc(Cl)c(Cl)c1)c1ccc2[nH]ncc2c1 [Example 12] &field=inhibition at 10 µM returns 59

GET /value?item= Cn1cc2cc(C(=O)Nc3ccc(F)c(Cl)c3)ccc2n1 [Example 18] &field=inhibition at 10 µM returns 90

GET /value?item= Cn1cc2cc(C(=O)Nc3ccc(F)c(F)c3)ccc2n1 [Example 20] &field=inhibition at 10 µM returns 83

GET /value?item= Cn1ncc2cc(/C=N/c3ccc(Cl)c(Cl)c3)ccc21 [Example 26] &field=inhibition at 10 µM returns 23

GET /value?item= O=C(Nc1ccc(Cl)c(Cl)c1)c1ccc2[nH]ccc2c1 [Example 2] &field=inhibition at 10 µM returns 70

GET /value?item= O=C(Nc1cc(Cl)cc(Cl)c1)c1ccc2[nH]ncc2c1 [Example 8] &field=inhibition at 10 µM returns 5

GET /value?item= COc1cc(NC(=O)c2ccc3[nH]ncc3c2)ccc1Cl [Example 4] &field=inhibition at 10 µM returns 24

GET /value?item= Cn1ccc2cc(C(=O)Nc3ccc(Cl)c(Cl)c3)ccc21 [Example 16] &field=inhibition at 10 µM returns 3

GET /value?item= Cn1ncc2cc(C(=O)Nc3ccc(F)c(F)c3)ccc21 [Example 19] &field=inhibition at 10 µM returns 18

GET /value?item= COc1ccc(NC(=O)c2ccc3[nH]ncc3c2)cc1Cl [Example 3] &field=inhibition at 10 µM returns 13

GET /value?item= Fc1cc(/N=C/c2ccc3[nH]ncc3c2)ccc1Cl [Example 23] &field=inhibition at 10 µM returns 27

GET /value?item= O=C(Nc1ccc(Cl)c(O)c1)c1ccc2[nH]ncc2c1 [Example 6] &field=inhibition at 10 µM returns 43

GET /value?item= Clc1cc(/N=C/c2ccc3[nH]ncc3c2)cnc1Cl [Example 25] &field=inhibition at 10 µM returns 45

GET /value?item= Fc1ccc(/N=C/c2ccc3[nH]ncc3c2)cc1Cl [Example 24] &field=inhibition at 10 µM returns 35

GET /value?item= O=C(Nc1ccc(O)c(Cl)c1)c1ccc2[nH]ncc2c1 [Example 5] &field=inhibition at 10 µM returns 60

GET /value?item= O=C(Nc1ccc(Cl)c(F)c1)c1ccc2[nH]ncc2c1 [Example 10] &field=inhibition at 10 µM returns 30

GET /value?item= COc1ccc(NC(=O)c2ccc3[nH]ncc3c2)cc1OC [Example 7] &field=inhibition at 10 µM returns 9

GET /value?item= Clc1ccc(/N=C/c2ccc3[nH]ncc3c2)cc1Cl [Example 22] &field=inhibition at 10 µM returns 43

GET /value?item= O=C(Nc1ccc(Cl)c(Cl)c1)c1ccc2[nH]ncc2c1 [Example 1] &field=inhibition at 10 µM returns 42

GET /value?item= COCCn1ncc2cc(C(=O)Nc3ccc(Cl)c(Cl)c3)ccc21 [Example 21] &field=inhibition at 10 µM returns 57

GET /value?item= O=C(Nc1ccc(F)c(Cl)c1)c1ccc2[nH]ncc2c1 [Example 9] &field=inhibition at 10 µM returns 17

GET /value?item= O=C(Nc1ccc(F)c(F)c1)c1ccc2[nH]ncc2c1 [Example 11] &field=inhibition at 10 µM returns 13
